Hi there, I'd appreciate the recorded protein stability index for every entry that follows.
# System: Saccharomyces cerevisiae
# Assay: protein stability index of tFT-peptide fusion (C-terminal peptide) (PSI (0-1 scale)); higher = more stable (slower turnover)
# Run Conditions: genetic background: das1 deletion; temperature: 30 C

What value of protein stability index has been reported for the following sequence? IGGLLKPSELDD [CRM1 C-terminal 12 aa] 0.726

Param item = NKRDKRPANFTR [TSC11 C-terminal 12 aa] ; retrieve measured protein stability index. 0.706

So what's the measured protein stability index for this one? LLMVGVPLLFSS [YPR159C-A C-terminal 12 aa] 0.625

Give the measured protein stability index of NAILNGGSVSGL [YAR066W C-terminal 12 aa] . 0.677

Give the measured protein stability index of ASYIQSREICLV [GNT1 C-terminal 12 aa] . 0.646

Fill blank: measured protein stability index of the sequence DLEVKLKKHKKN [TRZ1 C-terminal 12 aa] is ____. 0.733

Which protein stability index is listed for KYFLRMVYPMKV [ESBP6 C-terminal 12 aa] ? 0.489

Please report the recorded protein stability index for GPYWKRVVAFWC [AGP1 C-terminal 12 aa] . 0.734

Returns the measured protein stability index for the input sequence. Input: NGLKYHRGHSTH [SFP1 C-terminal 12 aa] 0.703

Need protein stability index, item DLVKAAAGSDNE [RRP15 C-terminal 12 aa] 0.682

Give its protein stability index value. Item: CMRPANQEIYPL [YLR157W-D C-terminal 12 aa] 0.704

// lookup protein stability index for HLSMVCDLELQL [NGL2 C-terminal 12 aa] 0.738

Report protein stability index for PYLEEAYSNLEE [PPX1 C-terminal 12 aa] please. 0.685

Reported protein stability index, sequence PADIDKYIIQRK [FMP46 C-terminal 12 aa] : ____ 0.702

I'd like to know its protein stability index. The sequence in question is YFNLFTDLSGSK [NEL1 C-terminal 12 aa] 0.73

Which value of protein stability index has been reported for IPELHNLKPTCV [YBR238C C-terminal 12 aa] in the records? 0.67
